Reference for the values: patent US8962608B2

- Assay Target: JAK1 (recombinant purified GST-tagged catalytic domain) (Homo sapiens (Human));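 also: biochemical assay with HTRF read-out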
- Sequence (P23458 875-1153): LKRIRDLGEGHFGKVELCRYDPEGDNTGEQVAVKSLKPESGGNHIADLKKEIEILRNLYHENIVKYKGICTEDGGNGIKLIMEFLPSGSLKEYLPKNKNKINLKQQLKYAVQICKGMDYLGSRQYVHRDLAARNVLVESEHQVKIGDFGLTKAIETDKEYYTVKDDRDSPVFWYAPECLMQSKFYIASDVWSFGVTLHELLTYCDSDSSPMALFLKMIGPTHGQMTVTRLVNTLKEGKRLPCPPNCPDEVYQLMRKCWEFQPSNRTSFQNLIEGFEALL
- Test Name: biochemical
pIC50: −log10 of the molar value.
Assay Endpoint: pIC50

The examples below pair each entry with its known result.
N#C[C@H]1C[C@@H](NCC(F)F)CC[C@@H]1n1cc(C(N)=O)c(Nc2ccc(Cl)c(F)c2)n1 (single isomer, unassigned) [Example 28-90]	8.40
N#C[C@H]1C[C@H](NCC(F)(F)F)CC[C@@H]1n1cc(C(N)=O)c(Nc2ccc(Cl)cc2)n1 (single isomer, unassigned) [Example 28-225]	7.92

a. N#C[C@@H]1C[C@H](C(=O)NC(C2CC2)C2CC2)CC[C@H]1n1cc(C(N)=O)c(Nc2ccc(Cl)cc2)n1 (single isomer, unassigned) [Example 35-5]
b. N#C[C@H]1CCCC[C@@H]1n1cc(C(N)=O)c(Nc2ccc(C(F)(F)F)nc2)n1 (single isomer, unassigned) [Example 17-109]
c. CC(C)(C)N[C@@H]1CC[C@H](n2cc(C(N)=O)c(Nc3ccc([C@H](O)C(F)(F)F)cc3)n2)[C@@H](C#N)C1 (single isomer, unassigned) [Example 28-52]
d. N#C[C@H]1CCCC[C@@H]1n1cc(C(N)=O)c(Nc2ccc(S(=O)(=O)Nc3ccc(C(F)(F)F)cc3)cc2)n1 (single isomer, unassigned) [Example 17-95]
// sort entries: pIC50, high to low Field: ranking. Enter the labels in the order requested.
c, d, a, b
